# target-of-assay: T1, human Klotho β (human, UniProt Q86Z14 1-1044)
# T1 sequence (looked up): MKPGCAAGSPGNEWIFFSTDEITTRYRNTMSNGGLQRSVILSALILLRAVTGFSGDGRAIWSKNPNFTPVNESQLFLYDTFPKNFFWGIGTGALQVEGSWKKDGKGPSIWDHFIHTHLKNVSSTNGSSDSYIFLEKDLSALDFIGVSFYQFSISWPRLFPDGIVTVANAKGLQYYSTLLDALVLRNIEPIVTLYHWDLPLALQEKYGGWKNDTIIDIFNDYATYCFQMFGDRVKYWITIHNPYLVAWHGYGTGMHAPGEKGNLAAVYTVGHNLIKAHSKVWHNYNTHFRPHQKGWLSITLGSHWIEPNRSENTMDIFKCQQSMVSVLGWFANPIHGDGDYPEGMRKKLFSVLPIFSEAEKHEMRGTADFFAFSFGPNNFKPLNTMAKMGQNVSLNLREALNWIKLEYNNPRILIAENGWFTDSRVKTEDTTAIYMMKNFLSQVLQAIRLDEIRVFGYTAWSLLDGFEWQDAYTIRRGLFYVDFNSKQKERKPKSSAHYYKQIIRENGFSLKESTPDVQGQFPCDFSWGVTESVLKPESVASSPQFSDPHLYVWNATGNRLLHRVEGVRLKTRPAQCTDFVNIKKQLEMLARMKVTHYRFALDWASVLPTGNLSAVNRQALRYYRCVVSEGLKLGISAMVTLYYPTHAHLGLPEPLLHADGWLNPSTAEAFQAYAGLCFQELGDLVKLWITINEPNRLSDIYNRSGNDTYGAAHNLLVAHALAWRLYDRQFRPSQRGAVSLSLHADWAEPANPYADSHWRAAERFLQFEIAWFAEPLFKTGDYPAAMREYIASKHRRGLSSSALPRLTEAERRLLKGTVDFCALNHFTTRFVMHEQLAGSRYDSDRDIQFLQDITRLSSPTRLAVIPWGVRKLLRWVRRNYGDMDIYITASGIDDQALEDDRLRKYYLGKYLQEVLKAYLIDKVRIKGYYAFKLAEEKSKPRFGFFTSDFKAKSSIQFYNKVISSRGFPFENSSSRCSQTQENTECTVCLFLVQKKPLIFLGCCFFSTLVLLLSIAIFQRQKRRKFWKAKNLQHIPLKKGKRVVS
# protocol-description: cell-based or functional assay
IC-50 of antagonism of FGF21 (pErk1/2, 293 HEK hKLB cells) below 3 µM gives F; IC-50 of antagonism of FGF21 (pErk1/2, 293 HEK hKLB cells) at or above it gives T.

> print(dat)
                                     binder  assigned.category
1  PPDVGSSDPLSMVGPSQGRSPAYAS [FGF21 25mer A22]                  F
2  PPDVGSSDPLSMVGPSQGRSPSAAS [FGF21 25mer A23]                  T
3  PPDVGSSDPLSMVGPSQGRSASYAS [FGF21 25mer A21]                  F
4  PPAVGSSDPLSMVGPSQGRSPSYAS [FGF21 25mer A3]                  F
5  PPDVGSSDPASMVGPSQGRSPSYAS [FGF21 25mer A10]                  F
6  PPDVGSSDPLSMVGPSQGRAPSYAS [FGF21 25mer A20]                  F
7  PPDAGSSDPLSMVGPSQGRSPSYAS [FGF21 25mer A4]                  F
8  PPDVGASDPLSMVGPSQGRSPSYAS [FGF21 25mer A6]                  F
9  PPDVGSSDPLSMAGPSQGRSPSYAS [FGF21 25mer A13]                  T
